pEC50 values by entry
Biological target: UniProt:P06401
Sequence (P06401 whole entry): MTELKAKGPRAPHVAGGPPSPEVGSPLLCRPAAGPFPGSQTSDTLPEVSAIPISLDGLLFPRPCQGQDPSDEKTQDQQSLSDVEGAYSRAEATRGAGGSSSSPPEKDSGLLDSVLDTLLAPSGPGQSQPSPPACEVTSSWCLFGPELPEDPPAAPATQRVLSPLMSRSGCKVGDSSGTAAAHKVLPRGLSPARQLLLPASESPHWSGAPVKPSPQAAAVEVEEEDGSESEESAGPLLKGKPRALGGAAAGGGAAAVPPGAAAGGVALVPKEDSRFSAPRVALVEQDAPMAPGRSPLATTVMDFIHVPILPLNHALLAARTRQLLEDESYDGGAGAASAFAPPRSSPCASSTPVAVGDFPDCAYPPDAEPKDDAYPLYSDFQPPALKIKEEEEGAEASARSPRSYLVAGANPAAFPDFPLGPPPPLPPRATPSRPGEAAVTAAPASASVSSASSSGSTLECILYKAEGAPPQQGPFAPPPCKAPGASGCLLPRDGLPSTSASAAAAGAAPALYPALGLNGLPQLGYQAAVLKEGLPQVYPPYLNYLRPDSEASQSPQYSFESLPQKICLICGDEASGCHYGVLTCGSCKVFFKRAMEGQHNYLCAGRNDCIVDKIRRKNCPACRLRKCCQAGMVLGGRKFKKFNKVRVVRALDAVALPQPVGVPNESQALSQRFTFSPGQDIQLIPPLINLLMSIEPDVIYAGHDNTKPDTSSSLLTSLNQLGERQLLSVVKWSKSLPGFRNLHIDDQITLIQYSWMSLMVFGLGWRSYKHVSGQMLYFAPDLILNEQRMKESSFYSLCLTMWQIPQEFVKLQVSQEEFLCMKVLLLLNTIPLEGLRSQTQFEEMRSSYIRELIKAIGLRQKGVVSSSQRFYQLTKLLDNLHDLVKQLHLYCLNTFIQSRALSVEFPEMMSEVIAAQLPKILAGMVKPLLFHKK
pEC50: −log10 of the molar value.
measurement.type: pEC50

[[record]]
compound = "C=C1C=C(C)C[C@@H](C)[C@@H]1Cc1cc(OC)c(Br)cc1OC(C)=O"
target_or_system = "UniProt:P06401"
measurement_type = "pEC50"
observed = 5.52

[[record]]
compound = "C=C1C=C(C)CC(C)(C)C1Cc1cc(OC)c(Br)cc1OC(C)=O (stereo unspecified)"
target_or_system = "UniProt:P06401"
measurement_type = "pEC50"
observed = 5.84

[[record]]
compound = "C=C1CCCC(C)(C)C1Cc1cc(OC)c(Br)cc1O (stereo unspecified)"
target_or_system = "UniProt:P06401"
measurement_type = "pEC50"
observed = 5.40

[[record]]
compound = "C=C1CCC[C@@H](C)[C@@H]1Cc1cc(OC)c(Br)cc1O"
target_or_system = "UniProt:P06401"
measurement_type = "pEC50"
observed = 5.52

[[record]]
compound = "COc1cc(CC2C(C)(C)CC(C)=CC23CC3)c(OC(C)=O)cc1Br (stereo unspecified)"
target_or_system = "UniProt:P06401"
measurement_type = "pEC50"
observed = 5.67

[[record]]
compound = "C=C1CCCC(C)(C)[C@@H]1Cc1cc(OC)c(Br)cc1O"
target_or_system = "UniProt:P06401"
measurement_type = "pEC50"
observed = 5.49


All figures here come from ChEMBL document CHEMBL1129561.
